Tested on: HCT-116 colon
testProtocol: NCI-60 one-dose screen, 48 h
testParameters: 10 µM unless noted
About 83,000 compounds went through this panel and 20% of them were active in at least one assay; those are over-represented in the sample as a whole. Calls of active or inactive are those of the source. Rule for the calls: active = growth percent below 10; inactive = the rest.
Select the matching outcome among true (active), false (inactive)

Req: GET /call?item= CC(C)=CC/C=C(/C)[C@H]1CC[C@]2(C)[C@@H]1CC[C@@H]1[C@@]3(C)CC/C(=N/O)C(C)(C)[C@@H]3CC[C@]12C returns the recorded outcome of this test.
Resp: false

Others:
Req: GET /call?item= C=C(C)[C@@H]1CC[C@]2(C(N)=O)CC[C@]3(C)[C@H](CC[C@@H]4[C@@]5(C)C/C(=C/c6cccnc6)[C@H](O)C(C)(C)[C@@H]5CC[C@]43C)[C@@H]12 returns the recorded outcome of this test.
Resp: true

Req: Next compound: CCN(CC)CCCNCc1cc(-c2ccccc2)nc2ccccc12
Resp: true

---

Test system: HCT-116 colon
testProtocol: NCI-60 one-dose screen, 48 h (100 = growth as untreated, 0 = no growth, -100 = all killed)
testParameters: 10 µM unless noted
Compounds without any hit were thinned out: in the full panel of roughly 83,000, 20% have a hit. Calls of active or inactive are those of the source. Rule for the calls: active = growth percent below 10; inactive = the rest.
assayReadout: growth

Req: Field: growth (HCT-116 colon). Entry: Cn1cc(-c2noc(-c3cn(C)c4ncc(F)cc34)n2)c2cc(Cl)ccc21
Resp: 44.5% (inactive)

Req: Next compound: CC(C)CSc1ncnc2nc[nH]c12
Resp: 109% (inactive)

Req: Next compound: C=C(C)[C@@H]1CC[C@]2(C(=O)NCCNCCNCCN)CC[C@]3(C)[C@H](CC[C@@H]4[C@@]5(C)CCC(=O)C(C)(C)[C@@H]5CC[C@]43C)[C@@H]12
Resp: -80.7% [100 µM] (active)

Req: Next compound: CC1(C)CC[C@]23CC[C@]4(C)[C@H](CC[C@@H]5[C@@]6(C)C/C(=C/c7ccncc7)C(=O)C(C)(C)[C@@H]6CC[C@]54C)[C@H]2[C@H]1OC3=O
Resp: 47.9% [100 µM] (inactive)

Req: Next compound: CC(C)OC(=O)Nc1cc(F)ccc1F
Resp: 105% (inactive)

Req: Next compound: CCOC(=O)n1cc(C2=C(c3ccc(OC)c(OC)c3)COC2=O)c2ccccc21
Resp: 4.07% (active)

Req: Next compound: CCN(CC)CCSC(=O)C(O)(c1ccccc1)C1CCCC1 (centres undefined)
Resp: 109% (inactive)

Req: Next compound: O=C(N=c1n(-c2ccccc2)nc2n1CCN2C1=NCCN1)c1ccc(Cl)cc1
Resp: 103% (inactive)

Others:
Req: Field: growth (HCT-116 colon). Entry: CCOC(=O)c1nc2c3ccccc3ccn2c1C(=O)OC
Resp: 97.5% (inactive)

Req: Next compound: C[n+]1cccc(NC(=O)c2ccc3ccc4ccc(C(=O)Nc5ccc[n+](C)c5)nc4c3n2)c1
Resp: 43.1% (inactive)

Req: Next compound: Cc1c(Cn2cc(COc3ccc(Br)cc3)nn2)c(C)c(Cn2cc(COc3ccc(Br)cc3)nn2)c(C)c1Cn1cc(COc2ccc(Br)cc2)nn1
Resp: 92.3% (inactive)

Req: Next compound: NC1=NC(=O)NC1(c1ccccc1)c1ccccc1
Resp: 99.9% (inactive)

Req: Next compound: CCOC(=O)c1sc2nc(-c3cc(OC)c(OC)c(OC)c3)nc(N3CCOCC3)c2c1C
Resp: 25.6% (inactive)

Req: Next compound: Nc1nnc(CSc2nnc3n(Cc4ccccc4)c(=O)c4c5c(sc4n23)CCCC5)s1
Resp: 89.5% (inactive)

Origin of values: PubChem BioAssay (NCI)
